All figures here come from paper PMC8533202.

// pKd lookup, one value per entry
Protein target, amino acids: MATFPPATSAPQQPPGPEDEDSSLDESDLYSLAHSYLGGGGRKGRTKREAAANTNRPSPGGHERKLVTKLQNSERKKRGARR
pKd: −log10 of the molar value.
Readout Type: pKd

• CCN(CC)CCCN1CCN(CCCN2c3ccccc3Sc3ccc(C(F)(F)F)cc32)CC1 [ZZW-143] = 4.70
• CN(C)CCCN1CCN(CCCN2c3ccccc3Sc3ccc(C(F)(F)F)cc32)CC1 [ZZW-142] = 5.70
• FC(F)(F)c1ccc2c(c1)N(CCCN1CCN(CCCN3CCCC3)CC1)c1ccccc1S2 [ZZW-144] = 4.92
• FC(F)(F)c1ccc2c(c1)N(CCCN1CCN(CCCN3CCOCC3)CC1)c1ccccc1S2 [ZZW-148] = 5.02
